target: Human KDR (residues 790-1356) (Homo sapiens (Human), UniProt P35968); assay: Human KDR kinase assay, HTRF KinEase (Example B-2); format: biochemical; settings: protocol of Example B-2 (other compounds)
Sequence (P35968 790-1356): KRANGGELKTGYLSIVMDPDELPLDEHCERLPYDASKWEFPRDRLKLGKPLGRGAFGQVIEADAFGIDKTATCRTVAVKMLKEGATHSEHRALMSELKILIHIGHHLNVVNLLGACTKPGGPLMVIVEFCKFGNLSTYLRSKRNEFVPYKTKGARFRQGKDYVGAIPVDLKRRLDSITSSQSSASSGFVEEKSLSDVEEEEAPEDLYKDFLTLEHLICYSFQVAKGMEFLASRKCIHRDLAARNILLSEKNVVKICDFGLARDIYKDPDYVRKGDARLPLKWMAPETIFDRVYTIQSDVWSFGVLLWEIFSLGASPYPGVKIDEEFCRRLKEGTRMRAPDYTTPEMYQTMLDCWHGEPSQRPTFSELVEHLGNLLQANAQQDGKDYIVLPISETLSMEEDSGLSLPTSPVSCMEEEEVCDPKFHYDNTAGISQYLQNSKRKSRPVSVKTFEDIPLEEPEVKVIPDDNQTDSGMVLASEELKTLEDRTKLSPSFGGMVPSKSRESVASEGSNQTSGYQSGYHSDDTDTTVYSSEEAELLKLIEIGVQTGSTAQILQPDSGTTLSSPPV
measurement_label: IC50

Cc1ccc2nccc(Oc3ccc(NC(=O)c4c(C)cc(C)n(-c5ccc(F)cc5)c4=O)cc3F)c2n1; < 100 nM
COc1ccc2c(Oc3ccc(NC(=O)c4cnc(C)c(-c5ccc(F)cc5)c4O)cc3)ccnc2c1; < 100 nM
COCCOc1nc2c(Oc3ccc(NC(=O)c4c(COC)nc(C)c(-c5ccc(F)cc5C)c4O)cc3F)ccnc2cc1OC; 100 to 300 nM
COc1cc2nccc(Oc3ccc(NC(=O)c4cn(OC)cc(-c5ccc(F)cc5)c4=O)cc3F)c2nc1OC; < 100 nM
COc1cc2nccc(Oc3ccc(NC(=O)C4=C5CCCN5CC(c5ccc(F)cc5)C4=O)cc3F)c2nc1OC (racemic) [Compound 373]; > 300 nM
COCc1nc(C)c(-c2ccc(F)cc2)c(O)c1C(=O)Nc1ccc(Oc2ccnc3ccc(OC)nc23)c(F)c1; 100 to 300 nM

Data point: "C=Cc1cc2nccc(Oc3ccc(NC(=O)c4cnc(C)c(-c5ccc(F)cc5)c4O)cc3F)c2nc1OC" ; IC50 = < 100 nM
